System: SARS-CoV-2 Omicron BA.5
Assay: microbe, parasite or virus in culture
Type: cell-based
Conditions: Severe acute respiratory syndrome coronavirus 2, Vero C1008, 48 h
assayEndpoint: pIC50
Scale note: pIC50 = -log10(concentration in M).

// fetch pIC50 given entry CC(C)(C)[C@H](NC(=O)C(F)(F)F)C(=O)N1C[C@H]2[C@@H]([C@H]1C(=O)N[C@H](C#N)C[C@@H]1CCNC1=O)C2(C)C [nirmatrelvir, reference compound]
7.05

Source of measurements: paper PMC11963564
